test system: MT-4 cells; assay: Test B: Cytotoxicity Assay (same protocol as Test A, uninfected cells); format: cell-based; conditions: uninfected MT-4 cells, 5 days, CellTiter-Glo
measured property: CC50 (µM)

compound="CC(C)(O)c1nnc(Nc2nn(CC(F)F)c3c(-c4ccc(C#CC(C)(C)S(=O)(=O)C5CC5)nc4[C@H](Cc4cc(F)cc(F)c4)NC(=O)Cn4nc(C(F)F)c5c4C(F)(F)[C@@H]4C[C@H]54)ccc(Cl)c23)o1 [Example 24]" unit_name=µM censor_symbol== assay_value=9.07
compound="CC(C)(O)c1nnc(Nc2nn(CC(F)F)c3c(-c4ccc(C#CC(C)(C)S(=O)(=O)C5CC5)nc4[C@H](Cc4cc(F)cc(F)c4)NC(=O)Cn4nc(C(F)F)c5c4C(F)(F)[C@@H]4C[C@H]54)ccc(Cl)c23)o1 [Example 25]" unit_name=µM censor_symbol=> assay_value=57.1
